Assay Method Text: in vivo
Test Context: both, cynomolgus, monkey
Measured Endpoint: NOAEL (mg/kg)
One number for each entry, in mg/kg.

NOAEL reading for `O=C(NN1C(=O)[C@@H]2[C@@H]3C=C[C@@H]([C@H]4C[C@@H]34)[C@@H]2C1=O)c1ccc(C(F)(F)F)cc1` : 2000

###

Assay Method Text: in vivo
Test Context: BALB/c, mouse, 2000 mg/kg
Measured Endpoint: MTD (mg/kg)
Answers are plain numbers, in mg/kg.

MTD reading for `O=C(NN1C(=O)[C@@H]2[C@@H]3C=C[C@@H]([C@H]4C[C@@H]34)[C@@H]2C1=O)c1ccc(C(F)(F)F)cc1` : 2000
